Attribution: the supplement of paper PMC11780869

- Test system: Bacillus subtilis
- experiment summary: cleaved RNA product abundance (RNA/gDNA barcode ratio) relative to median wild-type variant (ratio to wild type); higher = more accumulation of the downstream cleavage product
- condition label: experiment (reporter, strain, medium): exp 4a: truncated aprE reporter, strain BJT201 with 2% xylose (RNase J1 expressed); cleavage site: cggR-gapA (positions -7 to +36 mutated)
Record YES whenever cleaved RNA product abundance is at 0.4 or higher; record NO when lower.

INSERT INTO assay_data (sequence_string, class_name) VALUES
  ('ACAGACGAAGGAGCCGCAAAGAAGTTATTAAGGGTTGAATAATCCCTCAATATAAATCTCTCTCACTTATTTAAA', 'NO'),
  ('ACAGACGAAGGAGCCGCAAAGAAGTTATTAAGGGATGAATAATCACTCAACATAAATATCTCTCACTTATTTAAA', 'NO'),
  ('ACAGACGAAGGAGCCGCAAAGAAGTTATTAAGGGTTGAATAATCCCTCAATATATATATCTCTCACTTATTTAAA', 'NO'),
  ('ACAGACGAAGGAGCCGCAAAGTAGTAATTAAGGGATGAATAATCCCTCAATATAAATATCTCTCACTTATTTAAA', 'NO'),
  ('ACAGACGAAGGAGCCGCAAACAAGTTATTAAGGGATGAACAATCCCTCAATATAAATATCTCTCACTTATTTAAA', 'YES'),
  ('ACAGACGAAGGAGCCGCAAAGAAGTTATTAAGGGATGAATAATCCCTCTAAATAAATATCTCTCACTTATTTAAA', 'YES'),
  ('ACAGACGAAGGAGCCGCAAAGAAGTTATTAAGAGATGAATAATCCCTCAACATAAATATCTCTCACTTATTTAAA', 'NO');
